- target-under-test: Ratio of Nucleoli Translocation and Cytoplasm, AR (gene 367) (UniProt P10275)
- Sequence (P10275 whole entry, looked up): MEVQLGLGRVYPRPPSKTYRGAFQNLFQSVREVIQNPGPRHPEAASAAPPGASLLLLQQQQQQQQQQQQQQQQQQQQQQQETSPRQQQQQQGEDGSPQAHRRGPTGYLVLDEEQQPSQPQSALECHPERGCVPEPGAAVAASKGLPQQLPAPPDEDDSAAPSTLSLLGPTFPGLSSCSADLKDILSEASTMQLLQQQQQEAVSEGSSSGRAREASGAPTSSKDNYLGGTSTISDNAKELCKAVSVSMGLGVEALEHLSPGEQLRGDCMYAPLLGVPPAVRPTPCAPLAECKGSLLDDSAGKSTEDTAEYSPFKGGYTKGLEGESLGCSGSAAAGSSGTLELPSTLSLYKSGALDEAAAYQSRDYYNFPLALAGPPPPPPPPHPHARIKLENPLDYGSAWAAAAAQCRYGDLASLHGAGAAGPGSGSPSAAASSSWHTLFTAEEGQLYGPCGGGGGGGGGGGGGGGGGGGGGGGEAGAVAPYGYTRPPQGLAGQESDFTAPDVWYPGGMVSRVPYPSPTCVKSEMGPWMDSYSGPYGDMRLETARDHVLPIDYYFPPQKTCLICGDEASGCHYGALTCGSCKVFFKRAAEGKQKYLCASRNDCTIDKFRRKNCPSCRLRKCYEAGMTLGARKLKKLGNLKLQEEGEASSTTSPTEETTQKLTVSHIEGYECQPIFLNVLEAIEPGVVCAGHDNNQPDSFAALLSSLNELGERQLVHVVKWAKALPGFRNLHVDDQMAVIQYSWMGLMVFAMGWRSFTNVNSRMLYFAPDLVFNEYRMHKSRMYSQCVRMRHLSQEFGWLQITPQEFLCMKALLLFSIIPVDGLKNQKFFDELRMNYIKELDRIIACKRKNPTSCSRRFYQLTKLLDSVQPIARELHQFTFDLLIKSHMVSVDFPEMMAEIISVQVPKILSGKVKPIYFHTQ
- method: UPITT_HCI_U2OS_AR_TIF2_Nucleoli_Cytoplasm_Ratio_Agonist: University of Pittsburgh U2OS Androgen Receptor-Transcriptional Intermediary Factor 2 (AR-TIF2) Agonism High Content Imaging Assay for Ratio of Nucleoli Translocation and Cytoplasm (AID 2284000);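 note: hits raise the red nucleolar to cytoplasm ratio above vehicle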
Records with an inconclusive call do not appear. The source made the active and inactive calls. Rule for the calls: active = hit-call score of the fitted dose curve at least 0.9, where 1 is the maximum; inconclusive = response in the unintended direction; inactive = score below 0.9.
Classes used: active, inactive

>>> qualitative_label("O=C(/C=C/c1ccc(O)cc1)CC(=O)/C=C/c1ccc(O)cc1")
"inactive"
>>> qualitative_label("NC(=O)N1C(=O)C(C(=O)c2cc(Cl)cs2)c2cc(F)c(Cl)cc21 (stereo not drawn)")
"inactive"
>>> qualitative_label("Nc1cccc2c(N)cccc12")
"inactive"
>>> qualitative_label("CCCCCCCCCCCCc1ccccc1S(=O)(=O)O")
"active"
>>> qualitative_label("Cc1cc(CCN2CCN(c3nsc4ccccc34)CC2)cc2c1NC(=O)CC2(C)C")
"inactive"
>>> qualitative_label("Oc1cc2ccccc2c2ccccc12")
"inactive"
>>> qualitative_label("OCCC(F)(F)C(F)(F)C(F)(F)C(F)(F)C(F)(F)C(F)(F)C(F)(F)C(F)(F)F")
"inactive"
>>> qualitative_label("N#C[C@@H]1CC(F)(F)CN1C(=O)CNC1CC2CCC(C1)N2c1ncccn1 (stereo partly drawn)")
"inactive"

----------
- method: Tanguay_ZF_120hpf_TR_legacy: (Legacy) Oregon State University Tanguay Lab 120 Hour Post-fertilization zebrafish Assay for Touch Response (AID 2283667)
Records with an inconclusive call do not appear. Active and inactive are the calls of the source. The calls were made as follows: active = hit-call score of the fitted dose curve at least 0.9, where 1 is the maximum; inconclusive = response in the unintended direction; inactive = score below 0.9.
Classes used: active, inactive

>>> qualitative_label("OCCC(F)(F)C(F)(F)C(F)(F)C(F)(F)C(F)(F)C(F)(F)C(F)(F)C(F)(F)F")
"inactive"
>>> qualitative_label("CC(C)(C)c1ccc(O)c(C(C)(C)C)c1")
"inactive"
>>> qualitative_label("CC#C[C@]1(O)CC[C@H]2[C@@H]3CCC4=CC(=O)CCC4=C3[C@@H](c3ccc(N(C)C)cc3)C[C@@]21C")
"active"
>>> qualitative_label("CC(=O)NC1(c2cccc(F)c2)CCN(CC[C@@]2(c3ccc(Cl)c(Cl)c3)CN(c3ccccc3)C(=O)CO2)CC1")
"inactive"
>>> qualitative_label("CC[C@H](c1ccc(O)cc1)[C@@H](CC)c1ccc(O)cc1")
"inactive"
>>> qualitative_label("CCc1ccc(CCOc2ccc(CC3SC(=O)NC3=O)cc2)nc1 (centres undefined)")
"inactive"
>>> qualitative_label("CCc1nn(C2CCCCC2)c2cc(C3(C#N)CCC(C(=O)O)CC3)ccc12 (centres undefined)")
"active"
>>> qualitative_label("c1ccc2c(c1)Cc1ccccc1-2")
"inactive"
>>> qualitative_label("NC(=O)N1C(=O)C(C(=O)c2cc(Cl)cs2)c2cc(F)c(Cl)cc21 (centres undefined)")
"inactive"
>>> qualitative_label("CCOC(=O)CC(O)(CC(=O)OCC)C(=O)OCC")
"inactive"
>>> qualitative_label("Cc1oc(-c2ccccc2)nc1CCOc1ccc(C[C@H](Nc2ccccc2C(=O)c2ccccc2)C(=O)O)cc1")
"inactive"
>>> qualitative_label("C[C@@H]1C[C@H]2[C@@H]3CCC4=CC(=O)C=C[C@]4(C)[C@@]3(F)[C@@H](O)C[C@]2(C)[C@@]1(O)C(=O)COP(=O)(O)O")
"inactive"
>>> qualitative_label("c1ccc2cc3c(ccc4ccccc43)cc2c1")
"inactive"
>>> qualitative_label("CC[C@H](C)[C@@H](C(=O)O)n1sc2ccccc2c1=O")
"inactive"
>>> qualitative_label("c1ccc2c(c1)ccc1ccccc12")
"inactive"
>>> qualitative_label("CCCCCCC(=O)O")
"inactive"
>>> qualitative_label("COCC(C)OCC(C)O (centres undefined)")
"inactive"
>>> qualitative_label("CCCCCCCCOC(=O)CCCCCCCCC(=O)OCCCCCCCC")
"inactive"
>>> qualitative_label("Nc1cccc2c(N)cccc12")
"inactive"
>>> qualitative_label("COCC(C)O (centres undefined)")
"inactive"
>>> qualitative_label("COC(=O)CCCCC(=O)OC")
"inactive"
>>> qualitative_label("CC1=C(/C=C/C(C)=C/C=C/C(C)=C/C(=O)O)C(C)(C)CCC1")
"active"
>>> qualitative_label("OC1CCCCC1")
"inactive"
>>> qualitative_label("NC(=O)N(O)[C@@H]1C=C[C@H](Oc2cccc(Oc3ccc(F)cc3)c2)C1")
"inactive"

Recorded values, source PubChem BioAssay (EPA / NIEHS).
